remaining at 0.5 h, 0.1 µM reference
test: Metabolic stability in mouse liver microsomes assessed as compound remaining at 0.1 uM measured at 30 mins by LC-MS/MS analysis; type: ADME; settings: read-out: Stability
endpoint.name: remaining at 0.5 h, 0.1 µM (%)

{"columns": ["compound", "readout.number"],
 "data": [
  ["Cc1cc(NCc2ncnn2C)n2nc(C)c(-c3ccccc3)c2n1", 18.9],
  ["Cc1cc(NCC2CCCCN2)n2nc(C)c(-c3ccccc3)c2n1 (centres undefined)", 14],
  ["Cc1cc(NCc2ccccn2)n2nc(C)c(-c3cccnc3F)c2n1", 100],
  ["Cc1cc(NCc2ccc(F)cn2)n2nc(C)c(-c3ccccc3)c2n1", 5.3]
]}
